Tested on: ORYSAT (Rice, Tebonnet)
measurementNotes: Flooded paddy, post-transplant rice tolerance
Format: in vivo, Oryza sativa, (L.) Tebonnet
conditionSet: flooded paddy, post-transplant rice; rate 0.1250 kg/ha; rated 3-4 weeks after treatment; 0-9 rating scale
The label depends only on herbicidal rating, ORYSAT (rice tolerance): rule met if it is at least 4, rule not met if it is smaller.

Below are worked cases with known answers.
q: Please indicate if the recorded herbicidal rating, ORYSAT (rice tolerance) for "Cc1cc(C)c(-c2nsc3ccc(-n4c(=O)cc(C(F)(F)F)n(C)c4=O)cc23)s1" meets or exceeds 4.
a: rule not met

q: Please indicate if the recorded herbicidal rating, ORYSAT (rice tolerance) for "Cn1c(C(F)(F)F)cc(=O)n(-c2ccc3snc(-c4ccoc4)c3c2)c1=O" meets or exceeds 4.
a: rule not met

More entries:
q: Please indicate if the recorded herbicidal rating, ORYSAT (rice tolerance) for "CCOc1cc(OCC)nc(-c2nsc3ccc(-n4c(=O)cc(C(F)(F)F)n(C)c4=O)cc23)n1" meets or exceeds 4.
a: rule not met

q: Please indicate if the recorded herbicidal rating, ORYSAT (rice tolerance) for "Cn1c(C(F)(F)F)cc(=O)n(-c2ccc3snc(-c4cccs4)c3c2)c1=O" meets or exceeds 4.
a: rule met

q: Please indicate if the recorded herbicidal rating, ORYSAT (rice tolerance) for "Cn1c(C(F)(F)F)cc(=O)n(-c2ccc3snc(-c4ccccn4)c3c2)c1=O" meets or exceeds 4.
a: rule met

* * *

System: ORYSAT (Rice, Tebonnet)
measurementNotes: Flooded paddy, post-transplant rice tolerance
Format: in vivo, Oryza sativa, (L.) Tebonnet
conditionSet: flooded paddy, post-transplant rice; rate 0.0320 kg/ha; rated 3-4 weeks after treatment; 0-9 rating scale
Measured ORYSAT herbicidal rating (transplanted rice tolerance) of individual entries
Returns: the value as a bare number; no unit string appended.

Example entries and their recorded answers appear below.
q: Consider the molecule shown here: Cn1c(C(F)(F)F)cc(=O)n(-c2ccc3snc(C4OCC(CS(C)(=O)=O)O4)c3c2)c1=O (single isomer, unassigned) [Compound 87] What is its recorded ORYSAT herbicidal rating (transplanted rice tolerance)?
a: 0.0

q: Consider the molecule shown here: Cn1c(C(F)(F)F)cc(=O)n(-c2ccc3snc(C4OCC(C[S+](C)[O-])O4)c3c2)c1=O (centres unmarked) [Compound 88] What is its recorded ORYSAT herbicidal rating (transplanted rice tolerance)?
a: 0.0

q: Consider the molecule shown here: Cn1c(C(F)(F)F)cc(=O)n(-c2ccc3snc(-c4nc5ccccc5[nH]c4=O)c3c2)c1=O [Compound 90] What is its recorded ORYSAT herbicidal rating (transplanted rice tolerance)?
a: 0.0

More entries:
q: Consider the molecule shown here: Cn1c(C(F)(F)F)cc(=O)n(-c2ccc3snc(-c4sccc4CO)c3c2)c1=O [Compound 85] What is its recorded ORYSAT herbicidal rating (transplanted rice tolerance)?
a: 1.5

q: Consider the molecule shown here: Cn1c(C(F)(F)F)cc(=O)n(-c2ccc3snc(C4OCC(CS(C)(=O)=O)O4)c3c2)c1=O (single isomer, unassigned) [Compound 86] What is its recorded ORYSAT herbicidal rating (transplanted rice tolerance)?
a: 0.0

* * *

System: ORYSAT (Rice, Tebonnet)
measurementNotes: Flooded paddy, post-transplant rice tolerance
Format: in vivo, Oryza sativa, (L.) Tebonnet
conditionSet: flooded paddy, post-transplant rice; rate 0.0320 kg/ha; rated 3-4 weeks after treatment; 0-9 rating scale
Classes based on herbicidal rating, ORYSAT (rice tolerance): bucket A: < 2; bucket B: ≥ 2 and < 7; bucket C: ≥ 7

Below are worked cases with known answers.
q: Form field 'band' for Cn1c(C(F)(F)F)cc(=O)n(-c2ccc3snc(C4OCC(c5ccccc5)O4)c3c2)c1=O (stereo not drawn)
a: bucket B

q: Form field 'band' for C[C@@H]1C[C@H](C)OC(c2nsc3ccc(-n4c(=O)cc(C(F)(F)F)n(C)c4=O)cc23)O1 (stereo partly drawn) [Compound 50]
a: bucket B

q: Form field 'band' for "CCc1cc(-c2nsc3ccc(-n4c(=O)cc(C(F)(F)F)n(C)c4=O)cc23)c(CC)s1"
a: bucket A

q: Form field 'band' for "Cc1nnc(-c2nsc3ccc(-n4c(=O)cc(C(F)(F)F)n(C)c4=O)cc23)s1"
a: bucket B

q: Form field 'band' for "Cc1nn(-c2nsc3ccc(-n4c(=O)cc(C(F)(F)F)n(C)c4=O)cc23)c(C)c1C"
a: bucket A

More entries:
q: Form field 'band' for "Cn1c(C(F)(F)F)cc(=O)n(-c2ccc3snc(C4OCCO4)c3c2)c1=O"
a: bucket C

q: Form field 'band' for "Cn1c(C(F)(F)F)cc(=O)n(-c2ccc3snc(C4OCC(C)(C)CO4)c3c2)c1=O"
a: bucket C

q: Form field 'band' for CC(=O)N1CCSC1c1nsc2ccc(-n3c(=O)cc(C(F)(F)F)n(C)c3=O)cc12 (stereo not drawn)
a: bucket B

q: Form field 'band' for "Cn1c(C(F)(F)F)cc(=O)n(-c2ccc3snc(-c4sccc4Cl)c3c2)c1=O"
a: bucket B

q: Form field 'band' for "Cn1c(C(F)(F)F)cc(=O)n(-c2ccc3snc(-c4ccco4)c3c2)c1=O"
a: bucket A

q: Form field 'band' for C[C@@H]1C[C@H](C)OC(c2nsc3cc(F)c(-n4c(=O)cc(C(F)(F)F)n(C)c4=O)cc23)O1 (stereo partly drawn)
a: bucket C

q: Form field 'band' for "C#CCOC(=O)COc1ccsc1-c1nsc2ccc(-n3c(=O)cc(C(F)(F)F)n(C)c3=O)cc12"
a: bucket A

q: Form field 'band' for C[C@@H]1OC(c2nsc3cc(F)c(-n4c(=O)cc(C(F)(F)F)n(C)c4=O)cc23)O[C@@H]1C (stereo partly drawn)
a: bucket C
